Test name: amyloid nucleation score (Sup35N fusion, yeast selection) (log enrichment); library NNK1; higher = more nucleation; inactive = no reads after selection;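 also: zero at mode of non-aggregating sequences after 7 days selection at 30°C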
Value type: amyloid nucleation score
One number for each entry.

Solved cases (6 shown):
* WTMNLLA | -0.048
* YRGVQCFKATKNARVLLWVV | -0.051
* TYEYTRWGWYYLS | 1.11
* CVCLRGDKGPLSRLRLRSSS | 0.254
* VTVLSSVLIL | 0.332
* VISMTKMLAWFTGLVYGYYG | -0.21

Shifting focus to the substance that follows.
Find the recorded amyloid nucleation score belonging to MLNELWVQRWINLSLKYDNQ and report it.
0.957

Entry source: the supplement of paper PMC12042874
